test system: ATP; test: switch fluorescence ratio, 500 uM ATP over buffer (Cy3 cluster intensity, sum of 5 cycles each) (fold (ratio)); higher = stronger signal-on switching upon ATP binding; sequences stand for … in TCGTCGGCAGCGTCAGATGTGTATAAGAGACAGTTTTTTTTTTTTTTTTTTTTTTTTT…TC; conditions: aptamer strand: ATP DNA aptamer (quencher-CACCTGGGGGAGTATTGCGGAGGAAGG + anchor), 100 nM annealed; ATP concentration: 500 uM;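 also: ATP exposure 15 min at 22 °C before imaging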
readout: switch fluorescence ratio

Some sequences with recorded switch fluorescence ratio:
sequenceChain | readout | testValue
GCGTAAAGAT | switch fluorescence ratio | 0.992
ATATCCAGGA | switch fluorescence ratio | 1.02
GTTACTTAGC | switch fluorescence ratio | 1.04
GCATTATTTG | switch fluorescence ratio | 1.05

Query: What switch fluorescence ratio value was documented for this sequence, `TCGGAGCTTG` ?
Reply: 1.16

Query: Repeat with `TTCCTTTGGG`
Reply: 0.964

Query: Okay, and `GGGTTGACGG` ?
Reply: 0.986

Query: Input `AGAGAGGAGG`
Reply: 0.997

Query: Subsequent entry: `TTTCGACAAG`
Reply: 1.07

Query: Same question for `TGCAGATTTA` please.
Reply: 1.01

Query: Record: `GTTTGGGCCG`
Reply: 1.07

Query: Next entry: `TTGGAGGGGC`
Reply: 1

Query: Quick one: `CATGCTGGG`
Reply: 0.992

Query: What do we get for `TAAAAGGGGT` ?
Reply: 1.01

Query: What would you report for `ACTAATGTTT` ?
Reply: 0.994

Query: Then this sequence: `TAAATTTAAT`
Reply: 0.982

Query: Subsequent entry: `GAGGGGGAGG`
Reply: 0.982

Query: What do we get for `ATCATTGGTA` ?
Reply: 1

Query: Can you check `GGGGGTCGCA` next?
Reply: 0.947

Query: Query `GGGTATACAG` next
Reply: 1.01

Query: Same lookup for `TGCTTGCTGT` , please.
Reply: 0.991

---

tested on: ATP; assay: switch fluorescence ratio, 500 uM ATP over buffer (Cy3 cluster intensity, sum of 5 cycles each) (fold (ratio)); higher = stronger signal-on switching upon ATP binding; sequences stand for … in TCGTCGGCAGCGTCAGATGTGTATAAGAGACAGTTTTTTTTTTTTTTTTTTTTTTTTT…TC; conditions: aptamer strand: ATP DNA aptamer (quencher-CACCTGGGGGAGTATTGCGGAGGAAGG + anchor), 100 nM annealed; ATP concentration: 500 uM;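 also: ATP exposure 15 min at 22 °C before imaging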
switch fluorescence ratio values, listed per item
Please give only the number in your answer, with no unit.

Sample answers from the record:
sequenceChain | testValue
GCTGTATTTA | 0.974
ACCGCACCAA | 1.34
GTTAGAAGGG | 0.978
GGTGACACAG | 0.988
GTTATAATCC | 1.04
TTCAAAAAGT | 0.991
AATCTTCTGG | 0.98
TGTTTGAAGA | 1

Query: I have this sequence here, `TGTGGGGGAT` , and I need its recorded switch fluorescence ratio.
Reply: 1.01

Query: Next sequence: `AGGATGCAGA`
Reply: 1.01

Query: Now the sequence `AGCCAGGATT`
Reply: 0.972

Query: Another: `GATAGGTTGT`
Reply: 1.02

Query: Continue with `GACAACGGAT`
Reply: 1.02
